Experiment: Oral bioavailability in CD1 mouse at 25 mg/kg
Assay type: ADME, organism-based
Conditions: in vivo
true means recorded bioavailability is 20% or above; false means it is below 20%.

Req: Determine whether measured bioavailability meets or exceeds 20% for `CC[C@H]1OC(=O)[C@H](C)[C@@H](O[C@H]2C[C@@](C)(OC)[C@@H](O)[C@H](C)O2)[C@H](C)[C@@H](O[C@@H]2O[C@H](C)C[C@H](N(C)C)[C@H]2O)[C@](C)(O)C[C@@H](C)CN(CCCNC(=O)CCc2ccccc2)[C@H](C)[C@@H](O)[C@]1(C)O`
Resp: false

Req: Confirm if bioavailability reported for the molecule `CC[C@H]1OC(=O)[C@H](C)[C@@H](O[C@H]2C[C@@](C)(OC)[C@@H](O)[C@H](C)O2)[C@H](C)[C@@H](O[C@@H]2O[C@H](C)C[C@H](N(C)C)[C@H]2O)[C@](C)(O)C[C@@H](C)CN(CCC(=O)N[C@H](C)c2cccc3ccccc23)[C@H](C)[C@@H](O)[C@]1(C)O` is 20% or above.
Resp: true

Req: State whether the measured bioavailability reaches 20%, counting equality as reaching it, for CC[C@H]1OC(=O)[C@H](C)[C@@H](O[C@H]2C[C@@](C)(OC)[C@@H](O)[C@H](C)O2)[C@H](C)[C@@H](O[C@@H]2O[C@H](C)C[C@H](N(C)C)[C@H]2O)[C@](C)(O)C[C@@H](C)CN(C)[C@H](C)[C@@H](O)[C@]1(C)O [AZITHROMYCIN]
Resp: true

Req: Textbook exercise: given the entry `CC[C@H]1OC(=O)[C@H](C)[C@@H](O[C@H]2C[C@@](C)(OC)[C@@H](O)[C@H](C)O2)[C@H](C)[C@@H](O[C@@H]2O[C@H](C)C[C@H](N(C)C)[C@H]2O)[C@](C)(O)C[C@@H](C)CN(CCCNc2ccnc3ccccc23)[C@H](C)[C@@H](O)[C@]1(C)O` , state whether its bioavailability is greater than or equal to 20%.
Resp: false
